experiment: NCI Yeast Anticancer Drug Screen. Data for the rad50 strain (AID 155);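 further: 0% = growth of vehicle-only cultures of the same strain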; details: S. cerevisiae rad50 strain growth inhibition; at 50.0 µM; hits give high values
The panel holds about 79,000 compounds, 15% with a hit somewhere; the sample as a whole holds those more often.

[
  {
    "COMPOUND": "CC(=O)OCCn1c(Cc2ccc(C)cc2)nn(C(C)=O)c1=O",
    "growth inhibition / %": 16.6
  },
  {
    "COMPOUND": "COc1cc([C@@H]2C3C(=O)c4ccccc4C3[C@@H](c3cc(OC)c(OC)c(OC)c3)C23Cc2ccccc2C3=O)cc(OC)c1OC (some centres not stated)",
    "growth inhibition / %": -6.5
  },
  {
    "COMPOUND": "CC1=CC(C)(C)NC(=S)N1c1ccc(C)cc1S(=O)(=O)O",
    "growth inhibition / %": 28.5
  },
  {
    "COMPOUND": "CC(=O)c1cccc(C(C)=O)c1N=Cc1ccc(Cl)cc1",
    "growth inhibition / %": -30.3
  },
  {
    "COMPOUND": "CC1(C)CCCOc2cccc(c2)OCCCC(C)(C)C1=O",
    "growth inhibition / %": 14.5
  },
  {
    "COMPOUND": "N[n+]1ccccc1",
    "growth inhibition / %": -9.45
  },
  {
    "COMPOUND": "CON(C)c1nc(N(C)C)nc(N(C)C)n1",
    "growth inhibition / %": -1.65
  },
  {
    "COMPOUND": "C=C1CC(C2CCC(C)(C)C2)OC1=O (configuration not stated)",
    "growth inhibition / %": 13.7
  },
  {
    "COMPOUND": "O=C(NCC1(c2ccc3c(c2)OCO3)OCCO1)c1ccccc1[N+](=O)[O-]",
    "growth inhibition / %": 20
  },
  {
    "COMPOUND": "CN(C)CCCN1c2ccccc2Sc2ccc3ccccc3c21",
    "growth inhibition / %": -0.35
  },
  {
    "COMPOUND": "O=C(O)c1cnc(Cl)c(Br)c1",
    "growth inhibition / %": -12.1
  },
  {
    "COMPOUND": "CC(NC(=O)CNC(=O)CNC(=O)OCc1ccccc1)C(=O)OCc1ccccc1 (configuration not stated)",
    "growth inhibition / %": 4.35
  },
  {
    "COMPOUND": "CC1(C)COC(C2(C)C(=O)C=C(c3ccccc3)c3ccccc32)=N1 (configuration not stated)",
    "growth inhibition / %": 25.3
  },
  {
    "COMPOUND": "CC1(C)N=C(c2ccccc2)SC1(C)C",
    "growth inhibition / %": -13.6
  },
  {
    "COMPOUND": "C[N+]1(C)CCCC(c2ccccc2)(c2ccccc2)C(O)C1 (configuration not stated)",
    "growth inhibition / %": 10.8
  },
  {
    "COMPOUND": "CCCCCC(=O)OCCOCCOC",
    "growth inhibition / %": 33.7
  },
  {
    "COMPOUND": "CCOC(=O)CN1C(=O)C(=O)N(c2ccc(OC)c3ccccc23)C1=O",
    "growth inhibition / %": -46.1
  },
  {
    "COMPOUND": "O=C(O)CCCC/C=C/CCCCCCC1C=CCC1 (configuration not stated)",
    "growth inhibition / %": -23.4
  },
  {
    "COMPOUND": "O=C1CCCCC1COCC1CCCCC1=O (configuration not stated)",
    "growth inhibition / %": -4.8
  },
  {
    "COMPOUND": "CCCC(O)(c1ccccc1)c1ccccc1",
    "growth inhibition / %": 5.4
  },
  {
    "COMPOUND": "O=C(NC/C=C/Br)NC1CCNc2ccccc21 (configuration not stated)",
    "growth inhibition / %": -14.2
  },
  {
    "COMPOUND": "CC(/C=N/N(C)C1=NCCCCN1)=N/N(C)C1=NCCCCN1",
    "growth inhibition / %": 23.9
  },
  {
    "COMPOUND": "Cc1c(-c2ccccc2)c2ccccc2n1C",
    "growth inhibition / %": 38.1
  },
  {
    "COMPOUND": "CCc1cccc(C)c1NC(=S)NC(=O)c1ccccc1C(=O)NC(=S)Nc1c(C)cccc1CC",
    "growth inhibition / %": 12.3
  },
  {
    "COMPOUND": "CCOC(=O)Oc1ccc(C(=O)Oc2cc(Cl)c(Cl)cc2Cl)cc1OC",
    "growth inhibition / %": 3.9
  },
  {
    "COMPOUND": "CC12CCc3ccccc3C1=NNC(=O)C2 (configuration not stated)",
    "growth inhibition / %": -3.2
  },
  {
    "COMPOUND": "N#Cc1nnc2cc(-c3ccccc3)nn2c1-c1ccco1",
    "growth inhibition / %": 27.9
  },
  {
    "COMPOUND": "O.O.O=c1[nH]cc(CO)c(=O)[nH]1.[NH2-].[NH2-].[Pt+2]",
    "growth inhibition / %": 14.1
  },
  {
    "COMPOUND": "OCn1c2ccccc2c2ccccc21",
    "growth inhibition / %": 19.8
  },
  {
    "COMPOUND": "Fc1c(F)c(F)c(CCc2c(F)c(F)c(F)c(F)c2F)c(F)c1F",
    "growth inhibition / %": 11.2
  },
  {
    "COMPOUND": "O=C1NC(CO)C(=O)NC1CO (configuration not stated)",
    "growth inhibition / %": 3.7
  },
  {
    "COMPOUND": "O=C(O)/C(=C\\c1cccc(O)c1)c1ccccc1",
    "growth inhibition / %": -19.4
  },
  {
    "COMPOUND": "CCCCCCCCCCCCCCCCCCn1cnc2ncnc(Cl)c21",
    "growth inhibition / %": 6.95
  },
  {
    "COMPOUND": "O=[N+]([O-])c1ccc2[nH]nc(OCc3ccccn3)c2c1",
    "growth inhibition / %": 35
  },
  {
    "COMPOUND": "COc1cc(/C=C/c2ccc([N+](=O)[O-])cc2[N+](=O)[O-])ccc1O",
    "growth inhibition / %": 24.3
  },
  {
    "COMPOUND": "CC1CCC2C(C(=O)O[C@H]3C4C=CO[C@@H](OC5OC(CO)C(O)C(O)C5O)C4[C@@]4(CO)O[C@@H]34)=CO[C@@H](OC3OC(CO)C(O)C(O)C3O)C12 (some centres not stated)",
    "growth inhibition / %": -12.3
  },
  {
    "COMPOUND": "CCOC(=O)c1cn(CC)c2c(ccc3cnccc32)c1=O",
    "growth inhibition / %": -3.55
  },
  {
    "COMPOUND": "CCCCCSc1ncnc2c1ncn2CO",
    "growth inhibition / %": 0.9
  },
  {
    "COMPOUND": "CCc1ccc(-n2c(C)nc3[nH]cc(C)c3c2=N)cc1",
    "growth inhibition / %": -13.6
  },
  {
    "COMPOUND": "CC(=O)OCC1Cn2c(c(-c3ccccc3)c(=O)[nH]c2=S)O1 (configuration not stated)",
    "growth inhibition / %": -9.15
  },
  {
    "COMPOUND": "COc1ccc(C(O)C2CC(=O)NN=C2C)cc1OC (configuration not stated)",
    "growth inhibition / %": 8.05
  },
  {
    "COMPOUND": "CC(C)C(N)C(=O)Nc1nncs1 (configuration not stated)",
    "growth inhibition / %": 11.6
  },
  {
    "COMPOUND": "O=C(O)/C=C/c1ccccc1Cl",
    "growth inhibition / %": -9.7
  },
  {
    "COMPOUND": "O=C1NC(=O)C(CCBr)N1 (configuration not stated)",
    "growth inhibition / %": -21.1
  },
  {
    "COMPOUND": "Cc1cccc(NN)c1",
    "growth inhibition / %": 59.6
  },
  {
    "COMPOUND": "CCC(=C(C#N)C#N)c1cc(OC)c(OC)c(OC)c1",
    "growth inhibition / %": -43
  },
  {
    "COMPOUND": "CCCCCCCCSC1=NS(=O)(=O)c2ccccc21",
    "growth inhibition / %": 64
  },
  {
    "COMPOUND": "N#CCCc1nc(N)nc(N)n1",
    "growth inhibition / %": -19.7
  },
  {
    "COMPOUND": "CN(C)B(B(N(C)C)N(C)C)N(C)C",
    "growth inhibition / %": 13.7
  },
  {
    "COMPOUND": "CCC(C(C)O)[N+](=O)[O-] (configuration not stated)",
    "growth inhibition / %": 32.8
  },
  {
    "COMPOUND": "CN1CCOC(=O)C(C#N)=C1c1ccccc1",
    "growth inhibition / %": -26.5
  },
  {
    "COMPOUND": "O=C1CC2CCC(C1)S2=O (configuration not stated)",
    "growth inhibition / %": 19.6
  }
]

Entry source: PubChem BioAssay (NCI)
